assay.target: AtGH3.6 (Arabidopsis thaliana)
Construct: gene GH3.6
experiment: MST; also conjugated by AtGH3.[…] in bacterial lysate assay
Format: binding
pKd: −log10 of the molar value.
readout.kind: pKd

Hi! What's the reported pKd for O=C(O)Cc1ccccc1 [PAA, phenylacetic acid] on AtGH3.6 (Arabidopsis thaliana)? ~4.22

---

assay.target: AtGH3.6 (Arabidopsis thaliana)
Construct: gene GH3.6
experiment: MST
Type: binding
reported.conditions: read-out: Kd
pKd: −log10 of the molar value.
readout.kind: pKd

Could you share which pKd value was measured for O=C(O)Cc1c[nH]c2ccccc12 ? ~4.22

---

assay.target: AtGH3.6 (Arabidopsis thaliana, UniProt Q9LSQ4)
Construct: gene GH3.6
Sequence (Q9LSQ4 whole entry): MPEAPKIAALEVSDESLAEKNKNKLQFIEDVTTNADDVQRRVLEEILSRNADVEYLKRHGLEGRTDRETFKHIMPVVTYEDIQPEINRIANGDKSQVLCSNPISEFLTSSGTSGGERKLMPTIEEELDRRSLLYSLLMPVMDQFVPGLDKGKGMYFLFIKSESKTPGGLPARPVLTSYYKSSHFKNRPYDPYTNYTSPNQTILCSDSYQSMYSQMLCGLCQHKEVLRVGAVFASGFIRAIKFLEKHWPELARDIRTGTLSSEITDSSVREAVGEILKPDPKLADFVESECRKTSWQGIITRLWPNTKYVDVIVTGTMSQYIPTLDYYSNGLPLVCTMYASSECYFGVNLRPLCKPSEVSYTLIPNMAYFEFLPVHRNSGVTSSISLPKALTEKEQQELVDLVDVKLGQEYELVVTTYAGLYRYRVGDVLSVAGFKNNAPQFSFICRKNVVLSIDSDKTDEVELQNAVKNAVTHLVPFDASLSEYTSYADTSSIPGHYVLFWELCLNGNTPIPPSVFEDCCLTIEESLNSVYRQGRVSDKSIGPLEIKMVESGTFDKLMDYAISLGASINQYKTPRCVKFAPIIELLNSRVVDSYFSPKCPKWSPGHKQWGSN
experiment: crystal structure with AMP and Asp; MST
Type: binding
readout.kind: Kd (µM)
Return type: number; implicit unit µM.

Could you share which Kd value was measured for N[C@@H](CC(=O)O)C(=O)O [Asp, aspartate] ? 680

---

assay.target: AtGH3.6 (Arabidopsis thaliana, UniProt Q9LSQ4)
Construct: gene GH3.6
experiment: MST
Type: binding
readout.kind: pKd
Please express pKd as -log10 of the molar concentration.

Could you share which pKd value was measured for N[C@@H](CCC(=O)O)C(=O)O [Glu] ? 3.14
